Cited source: paper PMC5805711

# targetSystem: T1, wild-type ubiquitin (Ub^WT) (UniProt P0CG48 1-76)
# T1 construct: ubiquitin, the cut product of a ubiquitin precursor; last residue G76; Uniformly 15N-labelled for NMR; also called WT Ub; source: grown and purified using the standard Ub purification protocol; grown in 15N-enriched minimal media for NMR
# assaySummary: NMR titration; 15N-labeled Ub variant titrated with unlabeled UBA; amide CSPs in 1H-15N spectra, global fit to a single-site binding model; 23 °C, 20 mM sodium phosphate pH 6.8, 0.02% NaN3, 7% D2O
# conditionDetails: both partners purified
measurementType: Kd (µM)
Kindly provide the numeric value in µM only, without the unit symbol.

Input: Sample YRFQQQLEQLSAMGFLNREANLQALIATGGDINAAIERLLGS (domain or fragment, UniProt Q9UMX0 545-586, looked up, UBA domain of human ubiquilin-1 (hPLIC1) with V545Y; V545Y was introduced to allow concentration determination by absorbance at 280 nm; Unlabelled in the titrations; also called ubiquilin-1 UBA) [ubiquitin-associated domain (UBA) of human ubiquilin-1/hPLIC1, V545Y] — what was its Kd?
Output: 4.9
